Kindly supply the reported inhibition at 10 µM values for the records listed here.
- EXPERIMENTAL_TARGET: IKZF2 (Homo sapiens, UniProt Q96SW2+Q9UKS7)
- Sequence (Q9UKS7 whole entry): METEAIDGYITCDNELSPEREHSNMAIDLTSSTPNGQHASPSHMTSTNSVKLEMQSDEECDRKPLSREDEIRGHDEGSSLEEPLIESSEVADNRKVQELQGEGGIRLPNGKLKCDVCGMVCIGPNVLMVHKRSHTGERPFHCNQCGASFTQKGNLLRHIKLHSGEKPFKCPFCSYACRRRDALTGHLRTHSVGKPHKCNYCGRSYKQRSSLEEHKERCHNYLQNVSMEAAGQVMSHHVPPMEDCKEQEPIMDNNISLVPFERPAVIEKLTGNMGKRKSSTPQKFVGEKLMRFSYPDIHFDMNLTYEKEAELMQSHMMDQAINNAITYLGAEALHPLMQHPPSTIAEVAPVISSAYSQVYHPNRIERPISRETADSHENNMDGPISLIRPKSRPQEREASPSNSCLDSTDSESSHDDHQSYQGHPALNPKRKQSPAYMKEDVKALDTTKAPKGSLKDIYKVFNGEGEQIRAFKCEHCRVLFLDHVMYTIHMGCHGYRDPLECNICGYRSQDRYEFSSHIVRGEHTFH
- Sequence (Q96SW2 whole entry): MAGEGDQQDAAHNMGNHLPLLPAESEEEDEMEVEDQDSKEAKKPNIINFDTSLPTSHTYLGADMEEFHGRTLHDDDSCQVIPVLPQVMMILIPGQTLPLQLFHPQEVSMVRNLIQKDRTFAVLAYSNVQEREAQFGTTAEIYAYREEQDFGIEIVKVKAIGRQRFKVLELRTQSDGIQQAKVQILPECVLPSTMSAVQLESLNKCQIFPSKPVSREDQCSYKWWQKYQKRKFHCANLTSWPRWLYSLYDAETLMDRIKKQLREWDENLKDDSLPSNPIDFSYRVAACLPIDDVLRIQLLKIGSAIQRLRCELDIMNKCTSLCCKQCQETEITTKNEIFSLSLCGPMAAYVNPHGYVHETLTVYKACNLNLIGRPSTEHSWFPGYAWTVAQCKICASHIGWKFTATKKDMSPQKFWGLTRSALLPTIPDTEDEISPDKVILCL
- Sequence (Q16531 whole entry partner): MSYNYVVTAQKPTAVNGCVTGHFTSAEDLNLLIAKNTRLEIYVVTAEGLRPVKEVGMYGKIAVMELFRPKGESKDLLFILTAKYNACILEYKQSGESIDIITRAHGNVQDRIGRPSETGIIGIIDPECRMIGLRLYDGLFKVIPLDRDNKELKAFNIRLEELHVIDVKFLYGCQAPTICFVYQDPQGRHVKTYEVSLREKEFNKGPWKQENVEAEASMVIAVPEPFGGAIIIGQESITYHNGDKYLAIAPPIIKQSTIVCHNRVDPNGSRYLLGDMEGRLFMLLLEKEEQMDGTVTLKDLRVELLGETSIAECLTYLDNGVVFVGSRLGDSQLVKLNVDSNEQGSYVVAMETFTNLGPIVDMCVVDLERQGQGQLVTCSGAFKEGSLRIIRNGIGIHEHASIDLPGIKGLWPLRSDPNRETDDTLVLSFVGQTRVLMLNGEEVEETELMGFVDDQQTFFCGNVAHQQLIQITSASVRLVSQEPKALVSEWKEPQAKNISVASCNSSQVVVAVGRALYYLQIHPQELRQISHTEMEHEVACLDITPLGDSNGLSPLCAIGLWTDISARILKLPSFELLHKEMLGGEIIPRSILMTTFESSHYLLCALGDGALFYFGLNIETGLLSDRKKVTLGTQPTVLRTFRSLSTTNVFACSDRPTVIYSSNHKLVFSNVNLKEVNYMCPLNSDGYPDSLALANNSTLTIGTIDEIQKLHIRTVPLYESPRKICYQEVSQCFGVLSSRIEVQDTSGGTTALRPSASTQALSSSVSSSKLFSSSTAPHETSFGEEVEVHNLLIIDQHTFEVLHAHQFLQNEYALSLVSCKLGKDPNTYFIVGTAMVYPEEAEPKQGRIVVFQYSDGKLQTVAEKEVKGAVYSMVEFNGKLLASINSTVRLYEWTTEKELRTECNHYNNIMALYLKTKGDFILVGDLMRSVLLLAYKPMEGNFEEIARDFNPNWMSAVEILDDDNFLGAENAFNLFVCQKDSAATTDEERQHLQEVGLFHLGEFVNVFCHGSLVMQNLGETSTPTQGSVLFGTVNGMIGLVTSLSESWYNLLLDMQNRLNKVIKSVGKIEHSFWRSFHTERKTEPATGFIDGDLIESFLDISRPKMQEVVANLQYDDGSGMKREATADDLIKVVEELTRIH
- ASSAY_NAME: Prolabel quantification of IKZF2 protein levels in 293GT cells
- Type: cell-based
- CONDITION_CONTEXT: 24 h, 10 μM, 24 h, 293GT cells; read-out: IKZF2 % protein reduction at 10 μM, 24 h
Could you give me the number in %? Just the number is fine.

Could you share which inhibition at 10 µM value was measured for O=C1CCC(N2Cc3cc(C4CCN(Cc5nc6ccccc6s5)CC4)ccc3C2=O)C(=O)N1 (centres unmarked) ?
35

Tell me the measured inhibition at 10 µM of O=C1CCC(N2Cc3cc(C4CCN(Cc5ccns5)CC4)ccc3C2=O)C(=O)N1 (centres unmarked) , please.
60

May I ask what inhibition at 10 µM has been recorded for Cc1onc(-c2ccccc2)c1CN1CCC(c2ccc3c(c2)CN(C2CCC(=O)NC2=O)C3=O)CC1 (centres unmarked) ?
60

I am curious: what inhibition at 10 µM value has been reported for O=C1CCC(N2Cc3cc(C4CCN(Cc5ccc(OC(F)F)cc5)CC4)ccc3C2=O)C(=O)N1 (centres unmarked) ?
80

What value of inhibition at 10 µM has been reported for the following molecule? O=C1CCC(N2Cc3cc(C4CCN(Cc5ccccc5OC(F)F)CC4)ccc3C2=O)C(=O)N1 (centres unmarked)
60

Requested read-out: inhibition at 10 µM. Entry: O=C1CCC(N2Cc3cc(C4CCN(Cc5ccon5)CC4)ccc3C2=O)C(=O)N1 (centres unmarked)
40

# lookup: inhibition at 10 µM of O=C1CCC(N2Cc3cc(C4CCN(Cc5ccc(C(F)(F)F)cc5)CC4)ccc3C2=O)C(=O)N1 (centres unmarked)
75

Which value of inhibition at 10 µM has been reported for CC(c1ccccc1)N1CCC(c2ccc3c(c2)CN(C2CCC(=O)NC2=O)C3=O)CC1 (racemic) [Compound I-62] in the records?
75

For the molecule O=C1CCC(N2Cc3cc(C4CCN(Cc5ccc(CO)cc5)CC4)ccc3C2=O)C(=O)N1 (centres unmarked) , what inhibition at 10 µM is on record?
80

Data request, read-out inhibition at 10 µM, for O=C1CCC(N2Cc3cc(C4CCN(Cc5ccc6cn[nH]c6c5)CC4)ccc3C2=O)C(=O)N1 (centres unmarked)
80

So what does the record say about inhibition at 10 µM for N#Cc1cccc(CN2CCC(c3ccc4c(c3)CN(C3CCC(=O)NC3=O)C4=O)CC2)n1 (centres unmarked) ?
40

May I ask what inhibition at 10 µM has been recorded for O=C1CCC(N2Cc3cc(C4CCN(Cc5cnc6ncccn56)CC4)ccc3C2=O)C(=O)N1 (centres unmarked) ?
60

Which inhibition at 10 µM reading was recorded for the molecule O=C1CCC(N2Cc3cc(C4CCCNCC4)ccc3C2=O)C(=O)N1 (single isomer, unassigned) ?
25

inhibition at 10 µM for Nc1ncc(CN2CCC(c3ccc4c(c3)CN(C3CCC(=O)NC3=O)C4=O)CC2)cn1 (centres unmarked) ?
70

Look at this molecule and give its reported inhibition at 10 µM. CC(c1ccccc1)N1CCC(c2ccc3c(c2)CN(C2CCC(=O)NC2=O)C3=O)CC1 (single isomer, unassigned) [Compound I-230]
65

Any idea what its inhibition at 10 µM is? The molecule is O=C1CCC(N2Cc3cc(C4CCN(Cc5cccc(S(=O)(=O)N6CCOCC6)c5)CC4)ccc3C2=O)C(=O)N1 (centres unmarked)
80

Dear colleague, I am looking for the recorded inhibition at 10 µM of the following molecule: Cc1ccc2nc(CN3CCC(c4ccc5c(c4)CN(C4CCC(=O)NC4=O)C5=O)CC3)cc(=O)n2c1 (centres unmarked)
30

// returns reported inhibition at 10 µM for input O=C1CCC(N2Cc3cc(C4CCN(Cc5cccc(OC(F)(F)F)c5)CC4)ccc3C2=O)C(=O)N1 (centres unmarked)
60

// query inhibition at 10 µM value for entry CC(C)CN1CCC(c2ccc3c(c2)CN(C2CCC(=O)NC2=O)C3=O)CC1 (centres unmarked)
60

Reported inhibition at 10 µM for CC(C)Oc1cccc(CN2CCC(c3ccc4c(c3)CN(C3CCC(=O)NC3=O)C4=O)CC2)c1 (centres unmarked) : what is it?
65

For O=C1CCC(N2Cc3cc(C4=CCN(Cc5ccccc5)C4)ccc3C2=O)C(=O)N1 (centres unmarked) , what is its reported inhibition at 10 µM?
10

Can you share its inhibition at 10 µM? I mean this molecule: O=C1CCC(N2Cc3cc(C4CCN(Cc5ccc6scnc6c5)CC4)ccc3C2=O)C(=O)N1 (centres unmarked)
80

Fill blank: measured inhibition at 10 µM of the molecule O=C1CCC(N2Cc3cc(C4CCN(Cc5cccc(OC(F)F)c5)CC4)ccc3C2=O)C(=O)N1 (centres unmarked) is ____.
75

May I ask what inhibition at 10 µM has been recorded for COc1ncc(CN2CCC(c3ccc4c(c3)CN(C3CCC(=O)NC3=O)C4=O)CC2)cn1 (centres unmarked) ?
50

Which value of inhibition at 10 µM has been reported for O=C1CCC(N2Cc3cc(C4CCN(Cc5cc(F)cc(F)c5)CC4)ccc3C2=O)C(=O)N1 (centres unmarked) in the records?
65

Can you share its inhibition at 10 µM? I mean this molecule: O=C1CCC(N2Cc3cc(C4CCN(Cc5c[nH]nc5-c5ccccc5)CC4)ccc3C2=O)C(=O)N1 (centres unmarked)
70

Param item = O=C1CCC(N2Cc3cc(C4CCN(Cc5ccc(OCc6ccccn6)cc5)CC4)ccc3C2=O)C(=O)N1 (centres unmarked) ; retrieve measured inhibition at 10 µM.
60

Please give the measured inhibition at 10 µM for this molecule: O=C1CCC(N2Cc3cc(C4CCNCC4)ccc3C2=O)C(=O)N1 (centres unmarked)
40

Endpoint output: inhibition at 10 µM of O=C1CCC(N2Cc3cc(C4CCN(Cc5ccccc5C(F)(F)F)CC4)ccc3C2=O)C(=O)N1 (centres unmarked) . Value?
50

Fill in the blank: the reported inhibition at 10 µM of CCCc1ccc(CN2CCC(c3ccc4c(c3)CN(C3CCC(=O)NC3=O)C4=O)CC2)cc1 (centres unmarked) is ____.
80

Form field: reported inhibition at 10 µM of CCc1ccc(CN2CCC(c3ccc4c(c3)CN(C3CCC(=O)NC3=O)C4=O)CC2)cc1 (centres unmarked)
70

Fill blank: measured inhibition at 10 µM of the molecule O=C1CCC(N2Cc3cc(C4CCN(Cc5ccc6c(c5)NCCS6)CC4)ccc3C2=O)C(=O)N1 (centres unmarked) is ____.
80

----------
- EXPERIMENTAL_TARGET: IKZF2 (Homo sapiens, UniProt Q96SW2+Q9UKS7)
- ASSAY_NAME: Prolabel quantification of IKZF2 protein levels in 293GT cells
- Assay type: cell-based
- CONDITION_CONTEXT: 24 h, 10 μM, 24 h, 293GT cells; read-out: IKZF2 % protein reduction at 10 μM, 24 h
MEASUREMENT_LABEL: inhibition at 10 µM (%)
Provide the reading as a plain figure in %.

# input compound: COCc1ccc(CN2CCC(c3ccc4c(c3)CN(C3CCC(=O)NC3=O)C4=O)CC2)cc1 (stereo not shown) [Compound I-248] ; wanted: its inhibition at 10 µM
70

Look up inhibition at 10 µM: CC(C)Sc1ccc(CN2CCC(c3ccc4c(c3)CN(C3CCC(=O)NC3=O)C4=O)CC2)cc1 (stereo not shown) [Compound I-228]
70

Given N#Cc1cccc(CN2CCC(c3ccc4c(c3)CN(C3CCC(=O)NC3=O)C4=O)CC2)c1 (stereo not shown) [Compound I-36] , state its recorded inhibition at 10 µM.
75

I would be grateful if you could share the reported inhibition at 10 µM for O=C1CCC(N2Cc3cc([C@@H]4CCCNCC4)ccc3C2=O)C(=O)N1 (single isomer, unassigned) [Compound I-166] .
25

----------
Exercise: state measured DC50 for each of the compounds provided.
- EXPERIMENTAL_TARGET: IKZF2 (Homo sapiens, UniProt Q96SW2+Q9UKS7)
- ASSAY_NAME: Prolabel quantification of IKZF2 protein levels in 293GT cells
- Format: cell-based
- CONDITION_CONTEXT: Prolabel assay, 293GT cells; read-out: IKZF2 EC50
Please reply with the bare figure in nM and do not write the unit itself.

Returns the measured DC50 for the input compound. Input: O=C1CCC(N2Cc3cc(C4=CCN(Cc5ccccc5)CC4)ccc3C2=O)C(=O)N1 (stereo not shown)
103

Quick check: DC50 of Cn1nc(CN2CCC(c3ccc4c(c3)CN(C3CCC(=O)NC3=O)C4=O)CC2)c2ccccc21 (stereo not shown) ?
16

What value of DC50 has been recorded for this entry: CC(C)(C)c1nc(CN2CCC(c3ccc4c(c3)CN(C3CCC(=O)NC3=O)C4=O)CC2)cs1 (stereo not shown)
26

I am curious: what DC50 value has been reported for N#CCOc1ccc(CN2CCC(c3ccc4c(c3)CN(C3CCC(=O)NC3=O)C4=O)CC2)cc1 (stereo not shown) ?
4

I am curious: what DC50 value has been reported for O=C1CCC(N2Cc3cc(C4CCN(Cc5ccc(S(=O)(=O)C(F)F)cc5)CC4)ccc3C2=O)C(=O)N1 (stereo not shown) ?
30

Return reported DC50; argument: CCCc1ccc(CN2CCC(c3ccc4c(c3)CN(C3CCC(=O)NC3=O)C4=O)CC2)cc1 (stereo not shown)
20

Reported DC50, compound O=C1CCC(N2Cc3cc(C4CCN(Cc5ccc(C6CCCC6)cc5)CC4)ccc3C2=O)C(=O)N1 (stereo not shown) : ____
74
